Tested on: Vero E6
Assay: cell viability relative to DMSO; higher = less toxic
Measurement Context: 72 h; 100 nM
Measurement Name: cell viability (%)
Give the value in % but do not write % after it.

Molecule	Study System	Observed Value
COc1cc(C)c(/C=C/C(C)=C/C=C/C(C)=C/C(=O)O)c(C)c1C [acitretin]	Vero E6	99.6
CCOC(=O)c1ccc(-c2ccc(OC(=O)N(C)Cc3cccc(-c4ccncc4)c3)cc2)cc1 [WWL-113]	Vero E6	92.5
O=C(O[C@H]1C[N+]2(CCCOc3ccccc3)CCC1CC2)C(O)(c1cccs1)c1cccs1 [aclidinium]	Vero E6	101

Return reported cell viability; argument: N=C1N[C@H]2[C@H](CS[C@H]2CCCCC(=O)O)N1 [2-iminobiotin] 105
